Biological target: T1, human TF ECD-His6 (human, UniProt P13726 33-251)
T1 construct: Expi293-derived; Biacore used TF-His; also called TF-His; hTF
Assay: BLI (ForteBio Octet)
pKd: −log10 of the molar value.
Below is a list of entries, each paired with its recorded pKd value.
measured-quantity: pKd

INSERT INTO results (binder, measured_quantity, measured_number) VALUES
  ('25A5 (antibody, human IgG1, V domains shown, Human IgG1; also called antibody designated 25A5) VH: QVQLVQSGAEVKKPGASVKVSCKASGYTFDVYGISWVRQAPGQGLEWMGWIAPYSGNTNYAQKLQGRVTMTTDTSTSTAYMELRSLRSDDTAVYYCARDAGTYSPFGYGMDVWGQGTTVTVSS VL: DIQMTQSPSTLSASVGDRVTITCRASESISNWLAWYQQKPGKAPKLLIYKAYSLEYGVPSRFSGSGSGTEFTLTISSLQPDDFATYYCQQFQKLPPFTFGGGTKVEIK', 'pKd', 9.19),
  ('43D (antibody, human IgG1, V domains shown, Human IgG1; also called antibody designated 43D) VH: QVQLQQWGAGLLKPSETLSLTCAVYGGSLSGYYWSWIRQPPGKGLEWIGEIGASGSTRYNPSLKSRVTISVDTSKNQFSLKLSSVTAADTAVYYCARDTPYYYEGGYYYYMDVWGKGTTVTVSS VL: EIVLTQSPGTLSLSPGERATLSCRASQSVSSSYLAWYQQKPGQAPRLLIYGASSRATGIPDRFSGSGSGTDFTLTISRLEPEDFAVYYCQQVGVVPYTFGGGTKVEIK', 'pKd', 8.42),
  ('25A (antibody, human IgG1, V domains shown, Human IgG1; also called antibody designated 25A) VH: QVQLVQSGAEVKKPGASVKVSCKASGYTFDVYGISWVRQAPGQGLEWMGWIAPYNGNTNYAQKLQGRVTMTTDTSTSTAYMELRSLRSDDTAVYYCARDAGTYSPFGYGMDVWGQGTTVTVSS VL: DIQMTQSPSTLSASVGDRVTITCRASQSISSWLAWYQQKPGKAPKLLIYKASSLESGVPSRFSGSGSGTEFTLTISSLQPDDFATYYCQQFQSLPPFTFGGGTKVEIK', 'pKd', 8.07);
